Examples of compounds with documented melting point follow.

{"compound": "C[C@H](NC(=O)c1nc(CCCc2ccccc2)c[nH]1)C(=O)NC(C=O)CC(=O)O (some centres undefined)", "melting point": "94 to 96 °C"}
{"compound": "O=C(NC1CCCCC1)NS(=O)(=O)c1ccc2c(c1)CCN(C(=O)N1CCOCC1)CC2", "melting point": "190 to 191 °C"}
{"compound": "CS(=O)(=O)C(=C1CN(C(c2ccc(Cl)cc2)c2ccc(Cl)cc2)C1)c1cccc(SC(F)(F)F)c1", "melting point": "70 °C"}
{"compound": "C#CCOc1noc2c1CN(C(=O)OC(C)(C)C)CC2", "melting point": "107 to 108 °C"}
{"compound": "Cc1cc(C(=O)OC2CC3C(=O)NC4(C(=O)NS(=O)(=O)C5CC5)CC4C=CCCCCCC(NC(=O)OC(C)(C)C)C(=O)N3C2)no1 (centres undefined)", "melting point": "157 to 159 °C"}
{"compound": "Nc1nc2cc(OCc3ccccc3)ccc2c2c1ncn2CCOc1ccccc1", "melting point": "200 to 201 °C"}
{"compound": "CCCNC(=O)C(C)=Cc1ccc2c(c1)c(Cc1ccc(C(=O)NS(=O)(=O)c3ccccc3C)cc1OC)cn2CC(=O)N(C)C", "melting point": "230 to 231 °C"}
{"compound": "CCOC(=O)C1C(C#N)C1(C)C (centres undefined)", "melting point": "69 °C"}
{"compound": "CCCC(c1cccc(NC(=O)OCc2ccccc2)c1)c1c(O)c2c(oc1=O)CCCCCC2 (centres undefined)", "melting point": "64 to 67 °C"}
